Source listed as ChEMBL document CHEMBL4052749.

For each record, write down the corresponding inhibition.
tgt: Prostaglandin E synthase (Homo sapiens)
protocolSummary: Inhibition of human mPGES-1 expressed in 293-F cells using PGH2 as substrate preincubated for 15 mins followed by substrate addition measured after 30 secs at 10 uM by enzyme immunoassay
Could you give me the number in %? Just the number is fine.

Param item = "O=C(Nc1cccc2c(OC(=O)C(Cl)Cl)c(/C=C/c3ccc(S(=O)(=O)Nc4nccs4)cc3)cc(/N=N/c3ccc(S(=O)(=O)Nc4nccs4)cc3)c12)C(Cl)Cl" ; retrieve measured inhibition. 10

Param item = "Cc1cc(NS(=O)(=O)c2ccc(/N=N/c3cc(/N=N/c4ccc(S(=O)(=O)Nc5cc(C)nc(C)n5)cc4)c4c(NC(=O)C(Cl)Cl)cccc4c3OC(=O)C(Cl)Cl)cc2)nc(C)n1" ; retrieve measured inhibition. 46

Param item = "O=C(Nc1ccc(Cl)cc1)Nc1nnc(-c2cccc(-c3nnc(NC(=O)Nc4ccc(Cl)cc4)o3)c2)o1" ; retrieve measured inhibition. 59

Param item = "CN(Cc1ccc(Cl)cc1)C(=O)NCCCCCCNC(=O)N(C)Cc1ccc(Cl)cc1" ; retrieve measured inhibition. 64

Param item = "CC(C)(C)c1cc(OCc2nnc3sc(-c4ccc(Cl)cc4)nn23)c(Cl)cc1OCc1nnc2sc(-c3ccc(Cl)cc3)nn12" ; retrieve measured inhibition. 75

Param item = "O=C(C(=O)c1ccc(/N=C/c2ccc(N(CCCl)CCCl)cc2)cc1)c1ccc(/N=C/c2ccc(N(CCCl)CCCl)cc2)cc1" ; retrieve measured inhibition. 28

Param item = "COc1ccc(N(Nc2ccc(Br)cc2)c2ccccc2N(Nc2ccc(Br)cc2)c2ccccc2OC)cc1" ; retrieve measured inhibition. 100

Param item = "O=c1oc2ccccc2n1P(=O)(N1CCOCC1)N1CCOCC1" ; retrieve measured inhibition. 29

Param item = "Cn1c2ccccc2c(=S)c2cc(NC(=O)CCCCC(=O)Nc3ccc4c(c3)c(=S)c3ccccc3n4C)ccc21" ; retrieve measured inhibition. 25

Param item = "CC(=O)N[C@H]1[C@@H](OCc2ccccc2)O[C@H](CO)[C@H](O)[C@@H]1C[C@H](C)C(=O)N[C@@H](C)C(=O)N[C@H](CCC(=O)OCCNc1c2ccccc2nc2cccc([N+](=O)[O-])c12)C(N)=O" ; retrieve measured inhibition. 37

----------
System: COX1/COX2 (ovine COX1, human COX2; the isoform is not stated for the values)
protocolSummary: Inhibition of ovine COX1/human COX2 assessed as reduction in PGH2 production by measuring PGF2alpha at 100 uM using PG-acetylcholinesterase as tracer by colorimetry
recordedConditions: ovine COX1/human COX2 enzymes
For each record, write down the corresponding inhibition at 100 µM.
Could you give me the number in %? Just the number is fine.

Lookup: inhibition at 100 µM / COX1/COX2 (ovine COX1, human COX2; the isoform is not stated for the values) / "CC(C)(C)c1cc(OCc2nnc3sc(-c4ccc(Cl)cc4)nn23)c(Cl)cc1OCc1nnc2sc(-c3ccc(Cl)cc3)nn12" 15

Lookup: inhibition at 100 µM / COX1/COX2 (ovine COX1, human COX2; the isoform is not stated for the values) / "COc1ccc(N(Nc2ccc(Br)cc2)c2ccccc2N(Nc2ccc(Br)cc2)c2ccccc2OC)cc1" 37

Lookup: inhibition at 100 µM / COX1/COX2 (ovine COX1, human COX2; the isoform is not stated for the values) / "Cc1ccccc1NC(=O)/C(Cc1nc2ccc(C(=O)c3ccccc3)cc2nc1O)=N\NC(=O)c1ccncc1" 0

Lookup: inhibition at 100 µM / COX1/COX2 (ovine COX1, human COX2; the isoform is not stated for the values) / N#Cc1cccc(C2C(=O)c3c(c(-c4ccccc4)c(-c4ccc(Sc5ccc(-c6c(-c7ccccc7)c7c(c(-c8ccccc8)c6-c6ccccc6)C(=O)N(c6cccc(C#N)c6)C7=O)cc5)cc4)c(-c4ccccc4)c3-c3ccccc3)C2=O)c1 (configuration not stated) 9

Lookup: inhibition at 100 µM / COX1/COX2 (ovine COX1, human COX2; the isoform is not stated for the values) / "O=[N+]([O-])c1ccc(N/N=C(\C=C\c2ccc3c(c2)OCO3)c2cnc(Nc3ccc(Cl)c(Cl)c3)s2)c([N+](=O)[O-])c1" 8

Lookup: inhibition at 100 µM / COX1/COX2 (ovine COX1, human COX2; the isoform is not stated for the values) / CCCCOc1ccc(NC(=S)Nc2ccc(N(C)C)cc2)cc1 [THIAMBUTOSINE] 1

Lookup: inhibition at 100 µM / COX1/COX2 (ovine COX1, human COX2; the isoform is not stated for the values) / CC(=O)O[C@H]1CC[C@]2(C)C3C[C@@]4(C)C(CCC4[C@@H](C)CCCC(C)C)C[C@]3(C#N)n3c(=O)n(-c4ccccc4)c(=O)n3[C@]2(C#N)C1 (some centres not stated) 14
